B1: HDAC6 (parent)
chain: KMKTRELHRESSNFDSIYICPSTF

Variants of: B1
test_description: protein stability index of a GFP-peptide fusion (GPS, HEK-293T) (PSI 1-6); higher = more stable;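 also: lentivirally expressed fusions sorted by FACS into six bins by GFP to DsRed ratio, PSI derived from sequencing read proportions per bin multiplied by bin number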
stated_conditions: c terminus: a fixed tail appended
# key: entry, value: protein stability index
measured_attribute: protein stability index

1. E10P : 1.82
2. M2P : 2.96
3. I17C : 2.49
4. P21E : 1.91
